Reference source for all entries: patent US20240148821A1

I'd appreciate it if you could supply pIC50 values for the items below.
biological target: protein-protein interaction between Kras and SOS1 (biotin-tagged human Kras loaded with GDP, His-tagged human SOS1) (Homo sapiens (Human), UniProt P01116, G12D); test: Protein-protein interaction inhibition between Kras and SOS1 (KrasG12D-SOS PPI) using AlphaScreen; type: biochemical; settings: AlphaScreen; biotin-tagged human Kras loaded with GDP, His-tagged human SOS1; read-out: KRAS G12D-SOS PPI IC50;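 note: kras produced in E. coli, Ni-coupled donor beads and streptavidin acceptor beads, excitation 680 nm with emission detected at 520–620 nm via singlet oxygen transfer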
Numbered stars: 1 amine (or outer) side, 2 acyl side, 3 side chain; on linkers, the order of the positions; unused ones are H or OH. Bridge positions count the residues as written; N and C are the ends. Square brackets hold non-standard residues; d marks the D form. Peptide text beside a SMILES is read from it. * marks the point of attachment. hPhe(3,5-F2-4-CF3) = N[C@@H](CCc1cc(F)c(C(F)(F)F)c(F)c1)C(=O)O; hPhe(3-Cl-4-CF3) = N[C@@H](CCc1ccc(C(F)(F)F)c(Cl)c1)C(=O)O; hPhe(3-F,4-CF3) = N[C@@H](CCc1ccc(C(F)(F)F)c(F)c1)C(=O)O; NEtPhe(4-CF3) = CCN[C@@H](Cc1ccc(C(F)(F)F)cc1)C(=O)O; NMePhe(4-CF3) = CN[C@@H](Cc1ccc(C(F)(F)F)cc1)C(=O)O; X41 = CN([C@@H](CC=C1CCOCC1)C(=O)[*:2])[*:1]; NMedβ3hAla = C[C@H](CC(=O)[*:2])N(C)[*:1]; NMeGly(cPent) = CN[C@H](C(=O)O)C1CCCC1; Pro(4,4-F2) = O=C(O)[C@@H]1CC(F)(F)CN1; NMeCha = CN[C@@H](CC1CCCCC1)C(=O)O; NMeAhp(2) = CCCCC[C@H](NC)C(=O)O; NMeChg = CN[C@H](C(=O)O)C1CCCCC1; NMeD = CN[C@@H](CC(=O)O)C(=O)O; NMeL = CN[C@@H](CC(C)C)C(=O)O; NMeNle = CCCC[C@H](NC)C(=O)O; dNMeAbu = CC[C@@H](NC)C(=O)O; NMeV = CN[C@H](C(=O)O)C(C)C; d(β3hA) = C[C@@H](N)CC(=O)O; NMeA = CN[C@@H](C)C(=O)O; Piperidide = C1CCN(*)CC1; Pyrrolidide = C1CCN(*)C1; dNMeA = CN[C@H](C)C(=O)O; Ac5c = NC1(C(=O)O)CCCC1; Aze = O=C(O)[C@@H]1CCN1; Ac4c = NC1(C(=O)O)CCC1; Sar = CNCC(=O)O
Numbers only, as −log10 of the molar value.

Solved cases below.
# compound CCCC[C@H]1C(=O)N2CC[C@H]2C(=O)N(C)[C@@H](CC2CCCCC2)C(=O)N(C)[C@H](C)C(=O)N[C@@H](CCc2ccc(C(F)(F)F)c(Cl)c2)C(=O)N2CCC[C@H]2C(=O)NC2(CCCC2)C(=O)N(C)[C@@H](C(C)C)C(=O)N[C@H](C)CC(=O)N(C)[C@@H](C)C(=O)N[C@@H]([C@@H](C)CC)C(=O)N1C [Compound 2017] (cyclo([Ac5c][NMeV][d(β3hA)][NMeA]I[NMeNle][Aze][NMeCha][dNMeA][hPhe(3-Cl-4-CF3)]P)) ; its pIC50 = 6.46

Kindly note the recorded pIC50 for CC[C@H](C)[C@@H]1NC(=O)[C@H](CC(C)C)N(C)C(=O)C[C@@H](C(=O)N2CCCC2)N(C)C(=O)[C@H](C2CCCC2)N(C)C(=O)C2(CCCC2)NC(=O)[C@@H]2CCCN2C(=O)[C@H](CCc2ccc(C(F)(F)F)c(Cl)c2)NC(=O)CN(C)C(=O)[C@H](C2CCCC2)N(C)C(=O)[C@@H]2CCN2C(=O)[C@H](C)N(C)C1=O [Compound 201] ([NMeL]I[NMeA][Aze][NMeGly(cPent)][Sar][hPhe(3-Cl-4-CF3)]P[Ac5c][NMeGly(cPent)][NMeD]-Pyrrolidide; lactam N-11) , which is 9.24

I have 6 compounds here; please give me pIC50 for each one.
1. CCCCC[C@H]1C(=O)N[C@@H]([C@@H](C)CC)C(=O)N[C@@H](C)C(=O)N2CC[C@H]2C(=O)N(C)[C@@H](CC2CCCCC2)C(=O)N(C)CC(=O)N[C@@H](CCc2ccc(C(F)(F)F)c(F)c2)C(=O)N2CCC[C@H]2C(=O)NC2(CCCC2)C(=O)N(C)[C@@H](C2CCCC2)C(=O)N(C)[C@H](C(=O)N(C)C)CC(=O)N1C [Compound 1117] ([NMeAhp(2)]IA[Aze][NMeCha][Sar][hPhe(3-F,4-CF3)]P[Ac5c][NMeGly(cPent)][NMeD]-NMe2; lactam N-11)
2. CC[C@H](C)[C@@H]1NC(=O)[C@H](CC(C)C)N(C)C(=O)C[C@@H](C(=O)N2CCCCC2)N(C)C(=O)[C@H](C(C)C)N(C)C(=O)C2(CCCC2)NC(=O)[C@@H]2CCCN2C(=O)[C@H](CCc2ccc(C(F)(F)F)c(F)c2)NC(=O)CN(C)C(=O)[C@H](CC2CCCCC2)N(C)C(=O)CN(C)C(=O)[C@@H]2CCN2C1=O [Compound 139] ([NMeL]I[Aze][Sar][NMeCha][Sar][hPhe(3-F,4-CF3)]P[Ac5c][NMeV][NMeD]-Piperidide; lactam N-11)
3. CC[C@H](C)[C@@H]1NC(=O)[C@H](CC(C)C)N(C)C(=O)C[C@@H](C)N(C)C(=O)[C@H](C2CCCC2)N(C)C(=O)C2(CCCC2)NC(=O)[C@@H]2CC(F)(F)CN2C(=O)[C@H](CCc2cc(F)c(C(F)(F)F)c(F)c2)NC(=O)CN(C)C(=O)[C@H](Cc2ccc(C(F)(F)F)cc2)N(C)C(=O)[C@@H]2CCN2C(=O)[C@H](C)N(C)C1=O [Compound 900] (cyclo([Ac5c][NMeGly(cPent)][NMedβ3hAla][NMeL]I[NMeA][Aze][NMePhe(4-CF3)][Sar][hPhe(3,5-F2-4-CF3)][Pro(4,4-F2)]))
4. CC[C@H](C)[C@@H]1NC(=O)[C@H](CC(C)C)N(C)C(=O)C[C@@H](C(=O)N2CCCCC2)N(C)C(=O)[C@H](C2CCCCC2)N(C)C(=O)C2(CCCC2)NC(=O)[C@H](CC=C2CCOCC2)N(C)C(=O)[C@H](CCc2ccc(C(F)(F)F)c(Cl)c2)NC(=O)CN(C)C(=O)[C@H](CC2CCCCC2)N(C)C(=O)CN(C)C(=O)CN(C)C1=O [Compound 2053] ([NMeL]I[Sar][Sar][NMeCha][Sar][hPhe(3-Cl-4-CF3)][X41][Ac5c][NMeChg][NMeD]-Piperidide; lactam N-11)
5. CC[C@H](C)[C@@H]1NC(=O)[C@H](CC(C)C)N(C)C(=O)C[C@@H](C)N(C)C(=O)[C@H](C2CCCC2)N(C)C(=O)C2(CCC2)NC(=O)[C@@H]2CC(F)(F)CN2C(=O)[C@H](CCc2ccc(C(F)(F)F)c(Cl)c2)NC(=O)CN(C)C(=O)[C@H](Cc2ccc(C(F)(F)F)cc2)N(CC)C(=O)[C@@H]2CCN2C(=O)[C@H](C)N(C)C1=O [Compound 949] (cyclo([Ac4c][NMeGly(cPent)][NMedβ3hAla][NMeL]I[NMeA][Aze][NEtPhe(4-CF3)][Sar][hPhe(3-Cl-4-CF3)][Pro(4,4-F2)]))
6. CC[C@@H]1C(=O)NC2(CCCC2)C(=O)N(C)[C@@H](C2CCCC2)C(=O)N(C)[C@H](C(=O)N2CCCCC2)CC(=O)N(C)[C@@H](CC(C)C)C(=O)N[C@@H]([C@@H](C)CC)C(=O)N(C)CC(=O)N(C)CC(=O)N(C)[C@@H](CC2CCCCC2)C(=O)N(C)CC(=O)N[C@@H](CCc2ccc(C(F)(F)F)c(Cl)c2)C(=O)N1C [Compound 1439] ([NMeL]I[Sar][Sar][NMeCha][Sar][hPhe(3-Cl-4-CF3)][dNMeAbu][Ac5c][NMeGly(cPent)][NMeD]-Piperidide; lactam N-11)

OUT:
[8.66, 8.08, 9.08, 8.00, 8.89, 8.43]
